biological target: SH2D1A (Homo sapiens); construct: made in house; host or cells: HEK293 (transient transfection), unpurified extract; assay: biochemical; assay type: binding; conditions: primary screen, 10 μM; read-out: percent of DMSO vehicle control
OUTCOME_MEASURE: remaining activity at 10 µM (%)
Express the result in % but write the number alone.

Study these solved cases before continuing.
>  <COMPOUND>
C/C(=C\C(=O)N[C@H](C(=O)N1CCC[C@H]1C(=O)N(c1ccccc1)c1ccc(I)cc1)C(C)(C)C)c1ccc(OP(=O)(O)O)cc1 [STAT6-IN-1]

>  <UNIT_ABBREVIATION>
%

>  <remaining activity at 10 µM>
68.7

$$$$
>  <COMPOUND>
O=C(COc1ccc2cc(C(=O)Nc3ccccc3)ccc2c1)NCc1ccc(OP(=O)(O)O)c(OP(=O)(O)O)c1 [Stafib-1]

>  <UNIT_ABBREVIATION>
%

>  <remaining activity at 10 µM>
87.8

$$$$
>  <COMPOUND>
CC(C)(C)[C@H](NC(=O)/C=C/c1ccc(OP(=O)(O)O)cc1)C(=O)N1CCC[C@H]1C(=O)N(c1ccccc1)c1ccc(I)cc1 [STAT6-IN-3]

>  <UNIT_ABBREVIATION>
%

>  <remaining activity at 10 µM>
68.5

$$$$

--- query ---
q: Please give the measured remaining activity at 10 µM for this compound: O=C(CCl)Nc1cccc(CNC(=O)[C@H](Cc2ccc(OP(=O)(O)O)cc2)NC(=O)Cc2ccc(F)cc2)c1 [MN551]
a: 77.9

Values compiled from paper PMC12951562.
